Protocol details: clinical
Condition set: male, human, in vivo, iv, 4 mg
Experimental: The pharmacokinetics of intravenously administered cilansetron have also been evaluated in several studies. In a randomized, double-blind, placebo controlled, rising dose, crossover study in 24 male subjects, aged 23-37 years, the single-dose pharmacokinetics of IV cilansetron were evaluated over a 4 mg to 16 mg dose range. Subjects received, at intervals of 1 week, single doses of 4, 8, and 16 mg IV cilansetron in ascending order and a randomized placebo. Infusion times ranged from 15-30 minutes. […]
Assay endpoint: clearance (mL/min)
Return type: number; implicit unit mL/min.

**Query** Reported clearance, molecule Cc1nccn1C[C@H]1CCc2c(c3cccc4c3n2CCC4)C1=O [Cilansetron] : ____
**Result** 680

* * *

Protocol details: Study S.241.1.103: 14C mass balance, 8 mg oral and IV
Format: in vivo, human
Condition set: male, human, in vivo, po
Assay endpoint: Cmax
Just so you know, I need the unit written after the number.

**Query** Reported Cmax, compound Cc1nccn1C[C@H]1CCc2c(c3cccc4c3n2CCC4)C1=O [Cilansetron] : ____
**Result** 52.9 ng/mL

* * *

Protocol details: clinical
Condition set: both, human, in vivo, 8 mg
Assay endpoint: Tmax

**Query** Reported Tmax, molecule Cc1nccn1C[C@H]1CCc2c(c3cccc4c3n2CCC4)C1=O [Cilansetron] : ____
**Result** 1 h

* * *

Protocol details: Study S.241.1.109: single and multiple dose pharmacokinetics 2 mg TID
Format: in vivo, human
Condition set: both sexes, human, in vivo, 2 mg, AUC(0-τ)
Assay endpoint: AUC (ng·h/mL)
Return type: number; implicit unit ng·h/mL.

**Query** Reported AUC, compound Cc1nccn1C[C@H]1CCc2c(c3cccc4c3n2CCC4)C1=O : ____
**Result** 21

* * *

Protocol details: clinical
Condition set: both, human, in vivo, po, 8 mg, Tmax
Assay endpoint: Tmax (min)
Return type: number; implicit unit min.

**Query** Reported Tmax, molecule Cc1nccn1C[C@H]1CCc2c(c3cccc4c3n2CCC4)C1=O [Cilansetron] : ____
**Result** 45

* * *

Protocol details: clinical
Condition set: male, human, in vivo, iv
Assay endpoint: half-life

**Query** Reported half-life, compound Cc1nccn1C[C@H]1CCc2c(c3cccc4c3n2CCC4)C1=O [Cilansetron] : ____
**Result** 1.4 to 1.7 h

* * *

Protocol details: in vitro
Format: in vitro ADME
Condition set: human, plasma
Assay endpoint: fraction unbound
Output: the number by itself.

**Query** Reported fraction unbound, compound Cc1nccn1C[C@H]1CCc2c(c3cccc4c3n2CCC4)C1=O : ____
**Result** 0.042

* * *

Protocol details: Study S.241.1.104: Ortho Tri-Cyclen pharmacokinetics with cilansetron 2 mg TID
Type: in vivo, human
Condition set: female, human, plasma, oral, ORC + Cilansetron 2 mg TID; Day 21; arith. mean; read-out: T½ (converted)
Assay endpoint: half-life

**Query** Reported half-life, compound C#C[C@]1(O)CC[C@H]2[C@@H]3CCc4cc(O)ccc4[C@H]3CC[C@@]21C : ____
**Result** 20.9 h

* * *

Protocol details: clinical
Condition set: both, human, in vivo, po, 16 mg
Assay endpoint: Tmax (h)
Return type: number; implicit unit h.

**Query** Reported Tmax, compound Cc1nccn1C[C@H]1CCc2c(c3cccc4c3n2CCC4)C1=O : ____
**Result** 3

* * *

Protocol details: clinical
Condition set: male, human, in vivo, po, 16 mg
Assay endpoint: Tmax (h)
Return type: number; implicit unit h.

**Query** Reported Tmax, molecule Cc1nccn1C[C@H]1CCc2c(c3cccc4c3n2CCC4)C1=O : ____
**Result** 1

* * *

Protocol details: clinical
Condition set: male, human, in vivo, Vz/F
Assay endpoint: Vd/F (L)
Return type: number; implicit unit L.

**Query** Reported Vd/F, molecule Cc1nccn1C[C@H]1CCc2c(c3cccc4c3n2CCC4)C1=O : ____
**Result** 243

* * *

Protocol details: Study S241.1.111: relative bioavailability and food effect, 2 mg tablet vs oral solution
Format: in vivo, human
Condition set: both sexes, human, in vivo, po, 2 mg, AUC(0-inf)
Assay endpoint: AUC(0-inf) (ng·h/mL)
Return type: number; implicit unit ng·h/mL.

**Query** Reported AUC(0-inf), compound Cc1nccn1C[C@H]1CCc2c(c3cccc4c3n2CCC4)C1=O [Cilansetron] : ____
**Result** 20.7

* * *

Protocol details: clinical
Condition set: female, human, in vivo, 16 mg
Assay endpoint: Cmax (ng/mL)
Return type: number; implicit unit ng/mL.

**Query** Reported Cmax, compound Cc1nccn1C[C@H]1CCc2c(c3cccc4c3n2CCC4)C1=O : ____
**Result** 137

* * *

Protocol details: Study S.241.1.103: 14C mass balance, 8 mg oral and IV
Assay type: in vivo, human
Condition set: male, human, in vivo, iv
Assay endpoint: AUC(0-inf) (ng·h/mL)
Return type: number; implicit unit ng·h/mL.

**Query** Reported AUC(0-inf), compound Cc1nccn1C[C@H]1CCc2c(c3cccc4c3n2CCC4)C1=O : ____
**Result** 209

* * *

Protocol details: clinical
Condition set: male, human, in vivo, 8 mg, Cmax
Assay endpoint: Cmax (ng/mL)
Return type: number; implicit unit ng/mL.

**Query** Reported Cmax, compound Cc1nccn1C[C@H]1CCc2c(c3cccc4c3n2CCC4)C1=O : ____
**Result** 23.1

* * *

Protocol details: clinical
Condition set: female, human, in vivo, po, 32 mg, T½
Assay endpoint: half-life (h)
Return type: number; implicit unit h.

**Query** Reported half-life, molecule Cc1nccn1C[C@H]1CCc2c(c3cccc4c3n2CCC4)C1=O [Cilansetron] : ____
**Result** 1.01

* * *

Protocol details: clinical
Condition set: female, human, in vivo, po, 32 mg, Cmax
Assay endpoint: Cmax (ng/mL)
Return type: number; implicit unit ng/mL.

**Query** Reported Cmax, compound Cc1nccn1C[C@H]1CCc2c(c3cccc4c3n2CCC4)C1=O : ____
**Result** 270

* * *

Protocol details: clinical
Condition set: both, human, in vivo, 2 mg, T½
Assay endpoint: half-life (h)
Return type: number; implicit unit h.

**Query** Reported half-life, molecule Cc1nccn1C[C@H]1CCc2c(c3cccc4c3n2CCC4)C1=O : ____
**Result** 2.85

* * *

Protocol details: Study S.241.1.109: single and multiple dose pharmacokinetics 2 mg TID
Format: in vivo, human
Condition set: both sexes, human, in vivo
Assay endpoint: Tmax at 7 day (h)
Return type: number; implicit unit h.

**Query** Reported Tmax at 7 day, molecule Cc1nccn1C[C@H]1CCc2c(c3cccc4c3n2CCC4)C1=O [Cilansetron] : ____
**Result** 1.5

* * *

Protocol details: Study S.241.1.109: single and multiple dose pharmacokinetics 2 mg TID
Assay type: in vivo, human
Condition set: both sexes, human, in vivo, 2 mg, T½
Assay endpoint: half-life (h)
Return type: number; implicit unit h.

**Query** Reported half-life, molecule Cc1nccn1C[C@H]1CCc2c(c3cccc4c3n2CCC4)C1=O : ____
**Result** 1.6

* * *

Protocol details: clinical
Condition set: male, human, in vivo, po, 8 mg, Cmax
Assay endpoint: Cmax (ng/mL)
Return type: number; implicit unit ng/mL.

**Query** Reported Cmax, molecule Cc1nccn1C[C@H]1CCc2c(c3cccc4c3n2CCC4)C1=O : ____
**Result** 31.4

* * *

Protocol details: clinical
Condition set: male, human, in vivo, po, 8 mg
Assay endpoint: Vd/F (L)
Return type: number; implicit unit L.

**Query** Reported Vd/F, compound Cc1nccn1C[C@H]1CCc2c(c3cccc4c3n2CCC4)C1=O : ____
**Result** 472

* * *

Protocol details: Study S241.1.111: relative bioavailability and food effect, 2 mg tablet vs oral solution
Assay type: in vivo, human
Condition set: both sexes, human, in vivo, po, 2 mg, Cmax
Assay endpoint: Cmax (ng/mL)
Return type: number; implicit unit ng/mL.

**Query** Reported Cmax, molecule Cc1nccn1C[C@H]1CCc2c(c3cccc4c3n2CCC4)C1=O [Cilansetron] : ____
**Result** 7.55

* * *

Protocol details: clinical
Condition set: male, human, in vivo, 8 mg, Tmax
Assay endpoint: Tmax (h)
Return type: number; implicit unit h.

**Query** Reported Tmax, compound Cc1nccn1C[C@H]1CCc2c(c3cccc4c3n2CCC4)C1=O [Cilansetron] : ____
**Result** 1

* * *

Protocol details: clinical
Condition set: both, human, in vivo, 16 mg
Assay endpoint: Vd/F
Just so you know, I need the unit written after the number.

**Query** Reported Vd/F, compound Cc1nccn1C[C@H]1CCc2c(c3cccc4c3n2CCC4)C1=O [Cilansetron] : ____
**Result** 237 L

* * *

Protocol details: clinical
Condition set: male, human, in vivo, po
Assay endpoint: Tmax

**Query** Reported Tmax, molecule Cc1nccn1C[C@H]1CCc2c(c3cccc4c3n2CCC4)C1=O : ____
**Result** 1 to 1.25 h

* * *

Protocol details: clinical
Condition set: male, human, in vivo, iv, 8 mg, CLr
Assay endpoint: CL renal (mL/min)
Return type: number; implicit unit mL/min.

**Query** Reported CL renal, molecule Cc1nccn1C[C@H]1CCc2c(c3cccc4c3n2CCC4)C1=O : ____
**Result** 3.29
